Target: Inadl_9, Q8NI35
Sequence (Q8NI35 1530-1615): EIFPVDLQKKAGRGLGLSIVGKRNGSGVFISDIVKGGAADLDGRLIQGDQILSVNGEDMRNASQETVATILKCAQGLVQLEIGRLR
Assay: holdup assay
Design: key: below the threshold = too weak to quantify, mostly under pKd 3.1 to 4
Settings: plain residues with an end cap or a label only (N-terminal biotin on a linker: ado-ado)
endpoint label: pKd

Worked cases, pKd given:
For ELSATVTTDC [TRIP6, Q15654] the binder record lists pKd as below the threshold

The measured pKd associated with LKDDELKTKL [SLCO1A2, P46721] reads below the threshold

pKd for MHIQEKGFHV [EPHA6, Q9UF33] is below the threshold

Measured pKd of NISYRRESAI [KCNJ4, P48050] : below the threshold

Sure, the documented pKd for RFQQRMQTHV [KIRREL1, Q96J84] is below the threshold

Next:
get_value(item= EDLEDEWEVI [TECPR2, O15040] , readout=pKd) returns below the threshold

Recorded result, DTKNYKQTSV [CRIPT, Q9P021] , pKd: below the threshold

What the record says about NVYGIESVKI [GRIA2, P42262] : pKd is below the threshold
